assay: xn = mol fraction of the nth substance listed; settings: 298.15 K; 100 kPa; Liquid; Cone and plate viscometry; x1 = 0.5
Numbers after ± are expanded uncertainties.
Property Measured: viscosity

[[record]]
molecule = "CCCCCCn1cc[n+](C)c1.O=[N+]([O-])c1cn[n-]c1 [1-hexyl-3-methylimidazolium 4-nitropyrazolide] + CCCCCCCCCCCCCC[P+](CCCCCC)(CCCCCC)CCCCCC.O=S(=O)([N-]S(=O)(=O)C(F)(F)F)C(F)(F)F"
property_measured = "viscosity"
result = "352 ± 44 mPa·s"

[[record]]
molecule = "CCCCCCCCCCCCCC[P+](CCCCCC)(CCCCCC)CCCCCC.N#Cc1ccc[n-]1 [trihexyl(tetradecyl)phosphonium 2-cyanopyrrolide] + CCCCCCn1cc[n+](C)c1C.O=S(=O)([N-]S(=O)(=O)C(F)(F)F)C(F)(F)F"
property_measured = "viscosity"
result = "350 ± 44 mPa·s"

[[record]]
molecule = "CCCCCCn1cc[n+](C)c1C.O=[N+]([O-])c1cn[n-]c1 [1-hexyl-2,3-dimethylimidazolium 4-nitropyrazolide] + CCCCCCCCCCCCCC[P+](CCCCCC)(CCCCCC)CCCCCC.O=S(=O)([N-]S(=O)(=O)C(F)(F)F)C(F)(F)F"
property_measured = "viscosity"
result = "447 ± 57 mPa·s"

